Where do the numbers come from? From paper PMC3218832.

- assayed target: RELB subunit;p50 subunit (Homo sapiens;Homo sapiens, UniProt Q01201;P19838 120-401;7-356)
- Sequence (Q01201 120-401, chain 1 of 2): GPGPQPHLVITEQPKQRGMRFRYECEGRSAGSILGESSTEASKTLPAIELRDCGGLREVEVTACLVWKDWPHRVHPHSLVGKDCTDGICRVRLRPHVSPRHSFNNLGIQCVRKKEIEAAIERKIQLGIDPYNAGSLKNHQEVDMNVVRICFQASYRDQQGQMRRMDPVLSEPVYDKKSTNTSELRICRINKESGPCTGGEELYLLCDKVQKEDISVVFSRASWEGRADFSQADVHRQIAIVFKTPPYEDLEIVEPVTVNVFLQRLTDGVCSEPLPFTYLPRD
- Sequence (P19838 7-356, chain 2 of 2): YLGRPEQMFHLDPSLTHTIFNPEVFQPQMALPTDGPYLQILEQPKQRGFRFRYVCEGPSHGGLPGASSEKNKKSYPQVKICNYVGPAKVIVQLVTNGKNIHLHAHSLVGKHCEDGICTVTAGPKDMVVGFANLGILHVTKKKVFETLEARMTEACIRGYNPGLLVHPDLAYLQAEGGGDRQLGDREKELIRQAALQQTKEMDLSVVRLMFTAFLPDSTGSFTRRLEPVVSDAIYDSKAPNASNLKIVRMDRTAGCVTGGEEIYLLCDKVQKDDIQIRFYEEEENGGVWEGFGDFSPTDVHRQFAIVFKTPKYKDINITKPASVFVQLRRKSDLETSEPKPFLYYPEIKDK
- test: protein binding microarray; high values mean tight binding
- run conditions: dsDNA, one strand shown
experimental readout: binding signal (z-score)
Give just the number in z-score; leave the unit off.

For this sequence ( CAGGGGTTCCT ), measured binding signal is -0.0145

Summary for this sequence, CAAATGGTCCT : binding signal is -0.726

Given item CGGGGCACCCC , the value recorded as its binding signal is 0.451

response.value for CGGTTTTTCCC (field: binding signal) = 1.05

Sure, the documented binding signal for GAGGGAGCCCT is -0.793

The reported value for AAGATGGCCCT in terms of binding signal is -0.275

Lookup result for GGGGTCATCCT ; measured binding signal: -0.425

Kindly note the recorded binding signal for CAGAAGGCCCC , which is -0.248

Please fill in: binding signal reported for CGGTGTCTCCC = -0.121

get_value(item= CAAATAGCCCC , readout=binding signal) returns 0.524

----------
- assayed target: C-Rel subunit;p52 subunit (Homo sapiens;Homo sapiens, UniProt Q04864;Q00653 1-285;4-332)
- Sequence 1: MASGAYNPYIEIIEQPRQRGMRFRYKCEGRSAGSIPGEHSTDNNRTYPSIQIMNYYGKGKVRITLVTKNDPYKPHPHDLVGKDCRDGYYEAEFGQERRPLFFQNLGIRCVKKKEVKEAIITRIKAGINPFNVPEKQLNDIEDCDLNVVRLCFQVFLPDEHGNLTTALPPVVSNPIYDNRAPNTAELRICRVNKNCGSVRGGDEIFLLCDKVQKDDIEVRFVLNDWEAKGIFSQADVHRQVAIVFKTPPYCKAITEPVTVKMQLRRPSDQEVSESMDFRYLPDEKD
- Sequence 2: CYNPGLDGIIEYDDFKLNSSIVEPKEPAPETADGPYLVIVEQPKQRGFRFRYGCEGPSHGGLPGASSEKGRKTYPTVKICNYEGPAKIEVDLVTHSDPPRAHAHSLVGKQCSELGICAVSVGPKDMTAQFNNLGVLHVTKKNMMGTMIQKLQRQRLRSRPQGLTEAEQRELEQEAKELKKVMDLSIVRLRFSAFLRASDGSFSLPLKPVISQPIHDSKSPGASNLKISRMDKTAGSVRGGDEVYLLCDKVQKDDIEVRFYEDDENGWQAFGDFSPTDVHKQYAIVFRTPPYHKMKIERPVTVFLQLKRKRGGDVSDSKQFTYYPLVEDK
- test: protein binding microarray; high values mean tight binding
- run conditions: dsDNA, one strand shown
For each record, write down the corresponding binding signal.
Use z-score as the unit, but write only the number.

Memo: AGAGTAGCCCT , reported binding signal: -0.688

The recorded binding signal for entry AGAATTGTCCC equals 0.604

get_value(item= GGGTTGACCCT , readout=binding signal) returns -0.115

Form field binding signal, entry GGGTTGGTCCT : -0.527

Reported binding signal ( CGGGTCGTCCT ) = -0.64

Item: CGAGATACCCC | binding signal: 0.344

The sequence listed as GGATTTTCCCC has a reported binding signal of 2.19

Recorded binding signal (sequence CGGAGGCCCCC ): 0.393

# sequence CGGGAACCCCC ; its binding signal = 2.86

Per the record, AGATTCTTCCT has binding signal of -0.588

Reported binding signal ( GGATTCCCCCT ) = 2.78

The sequence CGGAATTTCCT showed binding signal equal to 0.719

Looking up AAAAGTCTCCC , I found its binding signal recorded as -0.177

Input GAAGAATCCCC . Output binding signal: 1.53

Per the record, GGGTAGTTCCT has binding signal of 0.583

GET /value?item= AGATATTCCCC &field=binding signal returns 1.71

Looking up AGGGGGGCCCT , I see its binding signal listed as 1.04

binding signal measured on GGAGGCGCCCC = -0.0409

Per the record, GGGAAGCTCCC has binding signal of 0.716

binding signal in this record for GGAAGCTTCCT : -0.614

----------
- assayed target: C-Rel subunit;p50 subunit (Homo sapiens;Homo sapiens, UniProt Q04864;P19838 1-285;7-356)
- Sequence (P19838 7-356, one chain of several): as the sequence (P19838 7-356, chain 2 of 2) above
- test: protein binding microarray; high values mean tight binding
- run conditions: dsDNA, one strand shown
experimental readout: binding signal (z-score)
Just the number please, in z-score, no unit attached.

Noted for GGAAGTATCCT : its binding signal reads -1.09

Sample AAGAGTACCCT ; binding signal observed: 0.116

The reported binding signal of the sequence CGGATGGCCCT was -0.715

The sequence CGAAAGATCCC showed binding signal equal to -0.258

The recorded binding signal for entry CAATTGCTCCC equals -0.849

Looking up AGAGATGCCCT , I see its binding signal listed as -0.882

The sequence GGGGTGTTCCT showed binding signal equal to 0.537

What the record says about AGATTACTCCT : binding signal is -1.01

Just so you know, measured binding signal for AGAGGCGTCCC came out at -0.234

Value of binding signal reported for the sequence CAGGGCCTCCC is -0.529

binding signal measured on GGATACCCCCC = 1.14

So for AAGGACTCCCC , the logged binding signal turned out to be 0.76

The value of binding signal measured for the sequence CAAGGTATCCC turned out to be -0.834

AAGAGCTTCCC has a reported binding signal of -0.423

Sample AGAGGAGCCCC ; binding signal observed: -0.0137

Recorded binding signal (sequence GGAGACGCCCT ): -1.16

Entry under test: CAAGACGCCCT . Its binding signal was -1.34

The sequence AGGTTCATCCC showed binding signal equal to -0.498

AAGGGTTTCCC yielded binding signal of 1.07

Note to self: binding signal recorded for CGAGTGACCCT was -1.34

----------
Assign binding signal to each entry below.
- assayed target: p52p52 homodimer (Homo sapiens, UniProt Q00653 4-332)
- Sequence: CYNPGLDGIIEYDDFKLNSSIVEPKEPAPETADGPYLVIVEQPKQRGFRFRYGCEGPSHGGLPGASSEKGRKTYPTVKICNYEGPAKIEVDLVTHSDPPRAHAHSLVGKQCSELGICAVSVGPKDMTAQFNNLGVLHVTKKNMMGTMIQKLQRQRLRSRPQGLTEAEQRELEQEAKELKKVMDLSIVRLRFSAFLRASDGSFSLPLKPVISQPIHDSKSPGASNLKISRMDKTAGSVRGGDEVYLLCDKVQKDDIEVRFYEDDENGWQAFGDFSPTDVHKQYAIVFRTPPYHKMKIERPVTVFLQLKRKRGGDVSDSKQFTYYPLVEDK
- test: protein binding microarray; high values mean tight binding
- run conditions: dsDNA, one strand shown
Form entry: value (z-score) — number only.

The recorded binding signal for entry AGGTTCGCCCT equals -0.726

Reported binding signal for AAATACGTCCC was 0.547

Recorded result, CGATTTCCCCT , binding signal: 2.21

Short answer for GAAGAATCCCC : binding signal was 2.18

Record GGGTGTTCCCC . Reported binding signal: 3.21

CGGTGGTTCCT yielded binding signal of 1.05

According to the records, this sequence CGGAGGCCCCC displays binding signal of -0.0558

According to the records, this sequence GAGAGGTCCCT displays binding signal of 0.431

# binding signal of AAAGTCATCCC = -0.412

CAAGAGTCCCC has a reported binding signal of 1.01

Quick note, binding signal for GAAATGCTCCC landed at -0.401

Notebook: AAGTGTATCCC , binding signal read as -0.379

Value of binding signal reported for the sequence GGGGGAACCCC is 3.25

Just so you know, measured binding signal for AGAGTCATCCT came out at -0.647

For reference, reported binding signal for AAGAATTTCCT stands at -0.35

Record AGGGATCTCCC . Reported binding signal: 2.05

The sequence listed as CGGGGGTCCCT has a reported binding signal of 0.985

binding signal measured on CGAAGCATCCT = -0.775

Memo: CGGGGTCTCCT , reported binding signal: 0.00961

Recorded binding signal (sequence AGAGTGTCCCT ): 0.823

----------
- assayed target: RELB subunit;p50 subunit (Homo sapiens;Homo sapiens, UniProt Q01201;P19838 120-401;7-356)
- test: protein binding microarray; high values mean tight binding
- run conditions: dsDNA, one strand shown
experimental readout: binding signal (z-score)
# value in z-score; strip the unit string

binding signal reading for GAAAGAATCCT : -0.95

Input AGATTCTTCCT . Output binding signal: -0.929

// binding signal lookup, sequence = CAGGTTGTCCT , result: -0.961

# binding signal of GGAGACGCCCT = -1.05

Entry GAAGATTTCCT — recorded binding signal = -0.764

The sequence GGGTTTGCCCT showed binding signal equal to -0.518

The recorded binding signal for entry CAATGACCCCC equals 0.27

For this sequence ( CGGGGGTCCCT ), measured binding signal is 1.06

get_value(item= GAATAAGTCCC , readout=binding signal) returns 1.38

// sample AGAAGCATCCC , its binding signal was -0.706

# binding signal (sequence: GGATGGCTCCT ) is -1.19

Consider CAAAGTTTCCT . Its measured binding signal is -0.737

Query GAGTATATCCT yields binding signal of -1

binding signal reading for GAGAAGCCCCT : 1.22

The reported binding signal of the sequence GAGTTTCTCCT was -0.911

Per the record, AGAGATGCCCT has binding signal of -1.04

Measured binding signal, AGATTTATCCC : -0.291

Value of measured binding signal for the entry GGGTGTTTCCT : 0.102

Measured binding signal, CGAGTTATCCT : -1.13

// field: binding signal; key: GGAGGGTCCCT ; value = 0.287

The reported binding signal of the sequence AAAGGACTCCT was -1.07

get_value(item= AAAAAGCTCCT , readout=binding signal) returns -1.17

The sequence listed as CGATTAACCCT shows binding signal equal to -0.691

Value of binding signal reported for the sequence GGGAAGACCCT is 0.374

Entry under test: GGGGGAACCCC . Its binding signal was 2.62

get_value(item= AGAGACACCCC , readout=binding signal) returns -0.257

// field: binding signal; key: AAGTACATCCC ; value = -0.551

What the record says about AGGTTGGCCCC : binding signal is -0.0488

binding signal in this record for AAGTTTCCCCT : 2.72

The value of binding signal measured for the sequence CAGAATTCCCC turned out to be 2.26

The value of binding signal measured for the sequence AGGAGGTCCCC turned out to be 0.631

// binding signal lookup, sequence = GAATTGTCCCC , result: 1.38

Recorded binding signal (sequence AAAGATGTCCC ): 0.741

The recorded binding signal for AAAAGCGTCCC is 0.48

Form: sequence = CGGTGGATCCC ; binding signal = 0.911

# binding signal of AGAGAGGCCCC = -0.342

response.value for GGGGGCGCCCT (field: binding signal) = 1.12

get_value(item= CGAAGGACCCT , readout=binding signal) returns -0.928

Sample AGATGGTCCCC ; binding signal observed: 0.435

The value of binding signal measured for the sequence AAGTTCACCCC turned out to be 0.292

Briefly, binding signal measured for GAGGGTGTCCC : 0.314

response.value for AGATTATCCCT (field: binding signal) = 0.325
